// provenance: patent US20250101001A1

pIC50: recorded values
biological target: 5-HT2A (Homo sapiens); test: Serotonin 5-HT2A in vitro cellular IPOne antagonism assay; assay type: cell-based; parameters: host or cells: CHO-K1; conditions: CHO-K1 cells, IPOne HTRF, reference agonist a-Me-5HT
Sequence (P28223 whole entry): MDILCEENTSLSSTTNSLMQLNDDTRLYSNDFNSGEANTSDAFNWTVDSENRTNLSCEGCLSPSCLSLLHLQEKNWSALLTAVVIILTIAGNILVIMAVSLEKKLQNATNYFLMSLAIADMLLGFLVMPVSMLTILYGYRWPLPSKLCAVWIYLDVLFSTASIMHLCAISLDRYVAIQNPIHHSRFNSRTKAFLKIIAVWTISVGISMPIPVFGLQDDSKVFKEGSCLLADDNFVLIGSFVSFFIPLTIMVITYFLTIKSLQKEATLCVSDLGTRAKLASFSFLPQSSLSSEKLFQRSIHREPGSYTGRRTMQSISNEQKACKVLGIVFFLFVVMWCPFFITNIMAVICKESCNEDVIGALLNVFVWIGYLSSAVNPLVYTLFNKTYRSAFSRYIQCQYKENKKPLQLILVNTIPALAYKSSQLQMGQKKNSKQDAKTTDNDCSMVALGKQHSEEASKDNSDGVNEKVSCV
pIC50: −log10 of the molar value.

Examples with answers:
compound=Fc1ccc2ccn(C3CNC3)c2c1 subject_of_test="5-HT2A (Homo sapiens)" obs_value="6.00 to 7.00"
compound="CC(C)c1cn(C2CCN(C)C2)c2ccc(F)cc12 (stereo not drawn)" subject_of_test="5-HT2A (Homo sapiens)" obs_value="6.00 to 7.00"
compound=Fc1ccc2c(ccn2C2CNC2)c1F subject_of_test="5-HT2A (Homo sapiens)" obs_value="6.00 to 7.00"
compound=Fc1ccc2c(ccn2C2CNC2)c1 subject_of_test="5-HT2A (Homo sapiens)" obs_value="6.00 to 7.00"
compound=N#Cc1ccc2c(ccn2C2CNC2)c1 subject_of_test="5-HT2A (Homo sapiens)" obs_value="< 5.00"
compound=CN1CC(n2ccc3c(F)c(F)ccc32)C1 subject_of_test="5-HT2A (Homo sapiens)" obs_value="6.00 to 7.00"
compound=Cc1ccc2c(ccn2C2CN(C)C2)c1 subject_of_test="5-HT2A (Homo sapiens)" obs_value="5.00 to 6.00"
compound="Cc1cn(C2CCN(C)C2)c2ccc(F)cc12 (stereo not drawn)" subject_of_test="5-HT2A (Homo sapiens)" obs_value="5.00 to 6.00"
compound=CN1CCC(n2ccc3c(F)c(F)ccc32)CC1 subject_of_test="5-HT2A (Homo sapiens)" obs_value="6.00 to 7.00"
compound=COc1ccc2c(ccn2C2CN(C)C2)c1 subject_of_test="5-HT2A (Homo sapiens)" obs_value="< 5.00"

Consider the compound "Fc1cccc2ccn(C3CNC3)c12" . State its measured pIC50. 5.00 to 6.00

Consider the compound "CN1CC(n2ccc3cc(F)ccc32)C1" . State its measured pIC50. 6.00 to 7.00

Consider the compound CN1CCC(n2ccc3c(F)c(F)ccc32)C1 (stereo not drawn) . State its measured pIC50. 6.00 to 7.00

Consider the compound "CN1CC(n2ccc3c(F)cccc32)C1" . State its measured pIC50. 6.00 to 7.00

Consider the compound COCCN1CCC(n2ccc3c(F)c(F)ccc32)C1 (stereo not drawn) . State its measured pIC50. 5.00 to 6.00

Consider the compound "Fc1ccc2c(ccn2C2CCNCC2)c1F" . State its measured pIC50. 6.00 to 7.00

Consider the compound "COc1ccc2c(ccn2C2CNC2)c1" . State its measured pIC50. < 5.00
